This collection of values is drawn from patent US20220009894A1.

// reported pEC50 per item
Target: RORγt-LBD (Homo sapiens, UniProt P51449)
Sequence (P51449 269-508 limits assumed): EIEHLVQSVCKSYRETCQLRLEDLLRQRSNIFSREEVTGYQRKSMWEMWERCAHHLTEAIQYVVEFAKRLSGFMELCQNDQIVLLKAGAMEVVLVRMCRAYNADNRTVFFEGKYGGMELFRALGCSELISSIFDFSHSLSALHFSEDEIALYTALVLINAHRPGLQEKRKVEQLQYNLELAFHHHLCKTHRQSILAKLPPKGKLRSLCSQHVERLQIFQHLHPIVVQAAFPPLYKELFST
Assay: Time-resolved fluorescence resonance energy-transfer assay (TR-FRET), co-activator peptide recruitment
Assay type: biochemical
Settings: His-RORγt-LBD 30 nM, SRC peptide 500 nM; agonistic activity; averages of one or more measurements; read-out: TR-FRET Biochemical EC50/
Interpret pEC50 as the negative base-10 log of the concentration measured in mol/L.

1) O=S(=O)(c1cccc(C(F)(F)F)c1)N1C[C@@H]2CN(C[C@H](O)CO)CCN2c2ccc(/C=C/c3c(Cl)cccc3C(F)(F)F)cc21 [Example 36]    7.60
2) O=S(=O)(c1cccc(C(F)(F)F)c1)N1CC2C[S+]([O-])CCN2c2ccc(-c3cc(F)cc(OC(F)F)c3)cc21 (stereo not drawn) [Example 101]    7.39

Now for a further molecule.
May I ask what pEC50 has been recorded for O=C(O)CCO[C@@H]1CCN2c3ccc(-c4cc(F)cc(OC(F)F)c4)cc3N(S(=O)(=O)c3cccc(C(F)(F)F)c3)C[C@@H]2C1 [Example 115] ?
7.17
